- tgt: hMT1 (Homo sapiens)
- assay.summary: cAMP assay (GloSensor), isoproterenol-stimulated cAMP in HEK cells
- Type: cell-based
- Design: expressed in transfected cells; host or cells: HEK-T (HEK-293 T) cells, co-transfected with GloSensor DNA
- experimental.setup: Table 2; agonist
Consider the following compounds; for each one, report its MT1 pEC50.
API note: the answer field is a bare number with no unit suffix.

Prompt: Record request: MT1 pEC50 value, item COC(=O)c1csc(CSc2nnc(C3CC3)[nH]2)c1 [ZINC713465976]
Completion: 7.75

Prompt: For COc1ccc(CN(C(=O)c2ccccc2F)c2ccncc2)cc1 [ZINC151192780] then?
Completion: 5.18

Prompt: And what about the compound COc1ccc(CNc2cccnc2)cc1 [ZINC5586789] ?
Completion: 6.81

Prompt: Query COC(=O)c1cc(Cn2nc(C)c(N)c2C)c(C)s1 [ZINC602421874] next
Completion: 4.70

---

- tgt: hMT1 (Homo sapiens, UniProt P48039)
- Sequence (P48039 whole entry): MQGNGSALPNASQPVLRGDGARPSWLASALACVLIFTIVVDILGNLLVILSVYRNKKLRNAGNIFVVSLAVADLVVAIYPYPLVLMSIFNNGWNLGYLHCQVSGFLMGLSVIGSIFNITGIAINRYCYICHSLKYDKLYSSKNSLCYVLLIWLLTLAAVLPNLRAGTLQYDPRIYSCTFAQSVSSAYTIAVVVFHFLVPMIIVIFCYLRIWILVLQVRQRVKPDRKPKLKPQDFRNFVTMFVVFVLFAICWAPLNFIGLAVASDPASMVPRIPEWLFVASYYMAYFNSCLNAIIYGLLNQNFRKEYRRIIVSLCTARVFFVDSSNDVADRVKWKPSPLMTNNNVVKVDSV
- assay.summary: cAMP assay (GloSensor), isoproterenol-stimulated cAMP in HEK cells
- Format: cell-based
- Design: expressed in transfected cells; host or cells: HEK-T (HEK-293 T) cells, co-transfected with GloSensor DNA
- experimental.setup: Table 1; agonist
Kindly state MT1 pEC50 for each of the entries shown.
The response must contain the number and no unit.

Prompt: Dear colleague, I am looking for the recorded MT1 pEC50 of the following compound: COC(=O)c1ccc(I)c(Oc2ccnc(C)n2)c1
Completion: 6.63

Prompt: One more compound: COC(=O)c1cc(Cn2ccn3c(=O)cc(C)nc23)c(C)s1
Completion: 5.20

Prompt: Same read-out for CCc1nc(SCc2cccc(C(=O)OC)c2)nc(O)c1C ?
Completion: 7.10
